# System: SK-MEL-28
# Method notes: NCI tumour cell line growth inhibition, 48 h
Calls of active or inactive are those of the source. No stated cut-off is given here; in the data, active = GI50 up to about 1.1 µM and inactive = higher.
Outcome measure: GI50

Worked examples, 9 compounds total:
Cc1ccc(S(=O)(=O)N2CCSCCSCCN(S(=O)(=O)c3ccc(C)cc3)CCN(S(=O)(=O)c3ccc(C)cc3)CC2)cc1: > 100 µM (inactive)
O=C1CC2=CCCC2O1 (stereo not given): > 100 µM (inactive)
Clc1ccc2cccc3c2c1C1OC3c2ccccc21 (stereo not given): > 100 µM (inactive)
CSc1c(C#N)c(O)n(-c2ccc(C)cc2)c(=O)c1C#N: > 100 µM (inactive)
COc1cc(OCCN(C)C)c2[nH]c(C(=O)N3CC(CCl)c4ccc(N)cc43)cc2c1 (stereo not given): 0.0628 µM (active)
O=C1C(=C/C=C2/SC(c3ccccc3)(c3ccccc3)c3ccccc32)C(=O)c2ccccc21: > 100 µM (inactive)
COc1ccc(C2CC(C)(O)Oc3cc4c(cc32)OCO4)cc1 (stereo not given): 45.6 µM (inactive)
CC12CC/C(=N/NC(N)=O)C3C1CCCC32: > 100 µM (inactive)
CC(=O)Nc1c(S(=O)(=O)c2ccccc2)c(C)c(C)n1CCN(C)C: > 100 µM (inactive)

Turning now to a further record.
Enter measured GI50, system SK-MEL-28, for the compound shown: `N#[N+][c-]1c(-c2ccccc2)n[nH]c1=O` > 100 µM (inactive)
